- STUDY_SYSTEM: T1, biotinylated recombinant human trimeric ARG2 enzyme (Avi-huARG2-His10) (human, UniProt P78540 23-354, biotinylated)
- T1 construct: also called avi-Arg2-His10; bio-ARG2
- T1 chain: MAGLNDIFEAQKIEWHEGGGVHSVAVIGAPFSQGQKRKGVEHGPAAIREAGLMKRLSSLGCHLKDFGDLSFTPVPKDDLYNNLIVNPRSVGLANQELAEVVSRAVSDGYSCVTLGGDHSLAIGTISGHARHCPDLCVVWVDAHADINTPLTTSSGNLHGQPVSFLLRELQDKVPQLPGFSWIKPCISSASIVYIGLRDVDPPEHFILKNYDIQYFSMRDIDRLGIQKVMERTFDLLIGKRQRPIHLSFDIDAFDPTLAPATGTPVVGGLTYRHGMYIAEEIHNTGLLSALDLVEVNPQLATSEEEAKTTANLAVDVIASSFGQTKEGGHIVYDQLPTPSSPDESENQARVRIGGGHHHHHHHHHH
- ASSAY: BLI (OctetRED) extended assay, bio-ARG2 on streptavidin, Fab as analyte, 1:1 fit
REPORTED_ENDPOINT: pKd
Give bare numbers, as −log10 of the molar value.

A selection of reference data follows.
BINDER	pKd
C0021144 Fab (Fab, V domains shown, Human Fab) VH: EVQLLESGGGLVQPGGSLRLSCAASGFTFRYDYHVWVRQAPGKGLEWVSAISGSGGSTYYADSVKGRFTISRDNSKNTLYLQMNSLRAEDTAVYYCARLRADLGLYMDLWGRGTLVTVSS VL: QSVLTQPPSVSAAPGQKVTVSCSGSSSNIGNHHVSWYQQLPGTAPKLLIYDTTVLSSGVPDRFSGSKSGTSATLGITGLQTGDEADYYCGTWDELTSNLVFGGGTKLTVL	9.47
C0021177 Fab (Fab, V domains shown, Human Fab) VH: EVQLLESGGGLVQPGGSLRLSCAASGFTFRYEVAAWVRQAPGKGLEWVSAISGPAPKGYYADSVKGRFTISRDNSKNTLYLQMNSLRAEDTAVYYCARLRADLGLYMDLWGRGTLVTVSS VL: QSELTQPPTASAAPGQKVTISCSGSSSNIGNHYVSWYQQLPGTAPKLLIYDTTVLSSGIPDRFSGSKSGTSATLGITGLQTGDEADYYCGTWDELTSNLVFGGGTKLTVL	9.76
C0021181 Fab (Fab, V domains shown, Human Fab) VH: EVQLLESGGGLVRPGGSLRLSCAASEFTFRYDYHVWVRQAPGKGLEWVSAISGSGGSTYYADSVKSRFTISRDNSKNTLYLQMNSLRAEDTAVYYCARLRADLGLYMDLWGRGTLVTVSS VL: QSVLTQPPSVSAAPGQKVAVSCSGSSSNIGSHYVSWYQQLPGTAPKLLIYDNSERTSGIPDRFSGSKSGTSATLGITGLQTGDEADYYCGTWDELTSNLVFGGGTRLTVL	9.54
C0021158 Fab (Fab, V domains shown, Human Fab) VH: EVQLLESGGGLVQPGGSLRLSCAASGFTFRYEVAAWVRQAPGKGLEWVSAISGPIPKGYYADSVKGRFTISRDNSKNTLYLQMNSLRAEDTAVYYCARLRADLGLYMDLWGRGTLVTVSS VL: QSVLTQPPSVSAAPGQKVTISCSGSSSNIGNHYVSWYQQLPGTAPKLLIYDNSERTAGVPDRFSGSKSGTSATLGITGLQTGDEADYYCGTWDELTSNLVFGGGTKLTVL	9.76
C0021155 Fab (Fab, V domains shown, Human Fab) VH: EVQLLESGGGLVQPGGSLRLSCEASGFTFRYDYHVWVRQAPGKGLEWVSAISGSGGSTYYADPVKGRFTISRDNSKNTLYLQMNSLRAEDTAVYYCARLRADLGLYMDLWGRGTLVTVSS VL: RSVLTQPPSVSAAPGQKVTISCSGSSSNIGNHYVSWYQQLPGTAPKLLIYDTTVLSSGIPDRFSGSKSGTSATLGITGLQTGDEADYYCGTWDELTSNLVFGGGTRLTVL	9.45

Consider the record given below.
Value of pKd reported for the binder C0021180 Fab (Fab, V domains shown, Human Fab) VH: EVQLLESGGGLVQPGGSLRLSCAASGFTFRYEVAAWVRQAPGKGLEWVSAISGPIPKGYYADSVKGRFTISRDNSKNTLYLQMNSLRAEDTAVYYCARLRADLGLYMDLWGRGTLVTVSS VL: QSVLTQPPTVSAAPGRKVTISCSGSSSNIGDHHVSWYQQLPGAAPKLLIYDTDHMASGIPDRFSGSRSGTSATLGITGLQTGDEADYYCGTWDSSLSALVFGGGTKLTVL is 9.36
